FYI, the data here is from ChEMBL document CHEMBL1909046.

assayed_system: D(3) dopamine receptor (Homo sapiens, UniProt P35462)
Sequence (P35462 whole entry): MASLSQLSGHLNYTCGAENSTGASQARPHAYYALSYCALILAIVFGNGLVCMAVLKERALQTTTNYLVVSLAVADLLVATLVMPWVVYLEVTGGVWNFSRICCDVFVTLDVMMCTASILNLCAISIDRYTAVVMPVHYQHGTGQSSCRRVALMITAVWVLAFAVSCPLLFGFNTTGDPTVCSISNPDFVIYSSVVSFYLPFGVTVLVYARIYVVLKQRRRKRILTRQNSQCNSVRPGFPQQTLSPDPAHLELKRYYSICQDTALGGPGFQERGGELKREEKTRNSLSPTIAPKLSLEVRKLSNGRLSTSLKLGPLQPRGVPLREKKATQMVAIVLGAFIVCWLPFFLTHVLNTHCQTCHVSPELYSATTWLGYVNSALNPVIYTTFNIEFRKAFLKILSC
method_description: DRUGMATRIX: Dopamine D3 radioligand binding (ligand: [3H] Spiperone)
Assay type: cell membranes, CHO, Membrane
reported_conditions: cho
value_type: IC50

compound: O=c1c(-c2ccc(O)cc2)coc2cc(O)cc(O)c12
result: Not Active
//
compound: C[C@]12CC[C@H]3[C@@H](CCC4=CC(=O)CC[C@@H]43)[C@@H]1CC[C@@H]2O
result: Not Active
//
compound: Cc1ccc(C)c(OCCCC(C)(C)C(=O)O)c1
result: Not Active
//
compound: CCN(C(C)=O)c1cccc(-c2ccnc3c(C#N)cnn23)c1
result: Not Active
//
compound: O=C(O)CC(O)(CC(=O)O)C(=O)O
result: Not Active

// input: 2 compounds below; output: IC50 for each
1. O=C(c1ccccc1F)N1CCC(Cc2ccccc2)CC1
2. C[C@H]1[C@H](NC(=O)/C(=N\OC(C)(C)C(=O)O)c2csc(N)n2)C(=O)N1S(=O)(=O)O

Response given:
1: Not Active; 2: Not Active

// input: 2 compounds below; output: IC50 for each
1. O=C(O)CCCCC1CCSS1 (centres undefined)
2. O=C1C[C@@H]2OCC=C3CN4CC[C@]56c7ccccc7N1[C@H]5[C@H]2[C@H]3C[C@H]46

Response given:
["Not Active", "Not Active"]
